biological target: NE release (NET), rat brain synaptosomes (Rattus norvegicus, UniProt Q63380); construct: Rat brain synaptosomes were isolated from Sprague Dawley rats (200-250 g); test: Release assay, [3H]NE, superfused rat brain synaptosomes
Sequence (Q63380 1-617): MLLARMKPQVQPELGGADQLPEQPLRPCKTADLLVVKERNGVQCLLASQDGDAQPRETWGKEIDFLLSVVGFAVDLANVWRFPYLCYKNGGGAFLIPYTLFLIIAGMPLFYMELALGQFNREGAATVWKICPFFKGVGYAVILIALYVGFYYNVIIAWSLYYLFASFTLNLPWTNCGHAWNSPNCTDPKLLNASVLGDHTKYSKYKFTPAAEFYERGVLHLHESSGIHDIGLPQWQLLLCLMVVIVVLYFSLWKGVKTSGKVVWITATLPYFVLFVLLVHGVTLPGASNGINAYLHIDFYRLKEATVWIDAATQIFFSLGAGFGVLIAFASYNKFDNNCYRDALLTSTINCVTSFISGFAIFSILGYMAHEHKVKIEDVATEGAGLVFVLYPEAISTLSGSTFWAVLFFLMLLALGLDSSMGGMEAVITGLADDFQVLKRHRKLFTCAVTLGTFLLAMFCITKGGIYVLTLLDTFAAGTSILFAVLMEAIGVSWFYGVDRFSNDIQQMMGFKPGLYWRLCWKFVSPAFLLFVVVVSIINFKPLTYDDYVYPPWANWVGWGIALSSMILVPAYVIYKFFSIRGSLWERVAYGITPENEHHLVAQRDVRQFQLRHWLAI
readout type: pEC50
For clarity, pEC50 is expressed as the negative log10 of concentration in mol/L.

So what's the measured pEC50 for this one? CNC(C)C(=O)c1ccc2c(c1)OCO2 (stereo not shown)
6.48

----------
molecular target: DA release (DAT), rat brain synaptosomes (Rattus norvegicus); construct: Rat brain synaptosomes were isolated from Sprague Dawley rats (200-250 g); assay: Release assay, [3H]DA, superfused rat brain synaptosomes
Sequence (P23977 whole entry, the tested form may be a part): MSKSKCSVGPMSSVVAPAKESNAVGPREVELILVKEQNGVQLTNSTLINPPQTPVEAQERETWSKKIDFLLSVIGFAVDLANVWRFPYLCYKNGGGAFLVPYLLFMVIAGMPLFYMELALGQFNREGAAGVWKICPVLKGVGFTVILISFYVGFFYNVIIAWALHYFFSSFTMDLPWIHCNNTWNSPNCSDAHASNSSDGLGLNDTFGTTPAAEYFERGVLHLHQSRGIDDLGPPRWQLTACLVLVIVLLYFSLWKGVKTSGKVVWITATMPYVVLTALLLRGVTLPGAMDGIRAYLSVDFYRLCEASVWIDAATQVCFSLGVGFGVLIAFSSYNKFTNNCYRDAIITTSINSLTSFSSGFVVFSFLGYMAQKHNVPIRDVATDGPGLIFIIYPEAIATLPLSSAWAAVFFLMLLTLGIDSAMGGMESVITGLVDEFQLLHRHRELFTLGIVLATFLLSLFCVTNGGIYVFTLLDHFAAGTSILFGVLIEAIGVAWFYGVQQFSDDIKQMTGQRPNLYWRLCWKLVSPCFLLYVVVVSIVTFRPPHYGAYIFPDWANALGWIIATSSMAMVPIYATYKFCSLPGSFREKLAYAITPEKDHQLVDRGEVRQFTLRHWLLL
readout type: EC50

Please look up its EC50: CNC(C)C(=O)c1ccc2c(c1)OCO2 (stereo not shown) [methylone]
4.79 µM

----------
molecular target: dopamine (DA) transporter (DAT) (Rattus norvegicus); construct: Rat brains were dissected and tissue was homogenized in cold lysis buffer; from tissue; host or cells: rat brain membrane preparation; assay: Competitive radioligand binding, [3H]WIN35428, rat brain membranes; settings: read-out: Ki, DAT; competitive radioligand binding, rat brain membranes; Cheng-Prusoff
Sequence (P23977 whole entry): as the sequence (P23977 whole entry, the tested form may be a part) above
readout type: Ki (µM)
Answer with a number only, understood to be in µM.

Tell me reported Ki for CNC(C)Cc1ccc2c(c1)OCO2 (stereo not shown) [MDMA, 3,4-Methylenedioxy methamphetamine, reference compound] , tested with dopamine (DA) transporter (DAT) (Rattus norvegicus).
5.11
